This listing pairs compounds with measured Cytotoxicity Against Vero TC0.
- Test system: Vero cell line
- protocol-notes: Cytotoxic activity against Vero cell line by MTT method
- Type: cell-based
- condition-info: non-cytotoxic concentration (TC0)
Only the number, expressed in µg/mL, is required.

Some solved cases for reference:
# compound, tested-system, Cytotoxicity Against Vero TC0 / µg/mL
measured = [
    ("COC(=O)[C@]1(Cc2ccc3c(c2)CCC(C)(C)O3)OC(=O)C(O)=C1c1ccc(O)cc1 [Compound 12, aspernolide A]", "Vero cell line", 100),
    ("COc1cc(-c2cc3c(c(=O)o2)C[C@]2(O)[C@@]4(C)C(=O)C=CC(C)(C)[C@]4(O)CC[C@@]2(C)O3)cc(OC)c1OC [Compound 4, territrem B]", "Vero cell line", 25),
    ("COc1ccc(-c2cc3c(c(=O)o2)C[C@]2(O)[C@@]4(C)[C@@H](O)C[C@@H](OC(C)=O)C(C)(C)[C@]4(O)CC[C@@]2(C)O3)cc1 [Compound 7, arisugacin H]", "Vero cell line", 100),
    ("COc1ccc(-c2cc3c(c(=O)o2)C[C@]2(O)[C@@]4(C)C(=O)C=CC(C)(C)[C@]4(O)CC[C@@]2(C)O3)cc1OC [Compound 6, arisugacin A]", "Vero cell line", 100),
    ("COc1cc(-c2cc3c(c(=O)o2)C[C@]2(O)[C@@]4(C)C(=O)C=CC(C)(C)[C@]4(O)CC[C@@]2(C)O3)cc(O)c1OC [Compound 1, territrem D]", "Vero cell line", 25),
]

## Input Which Cytotoxicity Against Vero TC0 value belongs to COc1cc(-c2cc3c(c(=O)o2)C[C@]2(O)[C@@]4(C)C(=O)C=CC(C)(C)[C@]4(O)CC[C@@]2(C)O3)ccc1O [Compound 2, territrem E] ?
## Output 200

## Input Endpoint output: Cytotoxicity Against Vero TC0 of COc1ccc(-c2cc3c(c(=O)o2)C[C@H]2[C@@](C)(CC[C@@]4(O)C(C)(C)OC(=O)CC[C@]24C)O3)cc1 [Compound 3, 11a-dehydroxyisoterreulactone A] . Value?
## Output 200

## Input Using the record for COC1(Cc2ccc(O)cc2)OC(=O)C(O)=C1c1ccc(O)cc1 (centres unmarked) [Compound 10, isobutyrolactone II] , report its Cytotoxicity Against Vero TC0.
## Output 200

---

- Tested on: HSV-1
- protocol-notes: Anti-HSV-1 plaque reduction assay in Vero cell monolayers
- Assay type: cell-based
- condition-info: Human alphaherpesvirus 1; plaque reduction assay in Vero cells, 72 h, under non-cytotoxic concentrations (TC0); read-out: Anti-HSV-1 IC50
recorded-metric: IC50
Give the figure together with its unit, number first.

# molecule, tested-system, IC50
records = [
    ("COC(=O)[C@]1(Cc2ccc3c(c2)CCC(C)(C)O3)OC(=O)C(O)=C1c1ccc(O)cc1 [Compound 12, aspernolide A]", "HSV-1", "28.9 µg/mL"),
    ("COc1ccc(-c2cc3c(c(=O)o2)C[C@H]2[C@@](C)(CC[C@@]4(O)C(C)(C)OC(=O)CC[C@]24C)O3)cc1 [Compound 3, 11a-dehydroxyisoterreulactone A]", "HSV-1", "16.4 µg/mL"),
]

## Input Give IC50 (HSV-1) of the following molecule: Nc1nc2c(ncn2COCCO)c(=O)[nH]1 [Acyclovir, reference compound]
## Output 34.5 µg/mL

## Input Form entry - test system: HSV-1; read-out: IC50; molecule: COC1(Cc2ccc(O)cc2)OC(=O)C(O)=C1c1ccc(O)cc1 (stereo not shown)
## Output 21.8 µg/mL

---

- tested-system: AChE (Homo sapiens, UniProt P22303)
- Construct: purchased Sigma
- Sequence (P22303 32-614): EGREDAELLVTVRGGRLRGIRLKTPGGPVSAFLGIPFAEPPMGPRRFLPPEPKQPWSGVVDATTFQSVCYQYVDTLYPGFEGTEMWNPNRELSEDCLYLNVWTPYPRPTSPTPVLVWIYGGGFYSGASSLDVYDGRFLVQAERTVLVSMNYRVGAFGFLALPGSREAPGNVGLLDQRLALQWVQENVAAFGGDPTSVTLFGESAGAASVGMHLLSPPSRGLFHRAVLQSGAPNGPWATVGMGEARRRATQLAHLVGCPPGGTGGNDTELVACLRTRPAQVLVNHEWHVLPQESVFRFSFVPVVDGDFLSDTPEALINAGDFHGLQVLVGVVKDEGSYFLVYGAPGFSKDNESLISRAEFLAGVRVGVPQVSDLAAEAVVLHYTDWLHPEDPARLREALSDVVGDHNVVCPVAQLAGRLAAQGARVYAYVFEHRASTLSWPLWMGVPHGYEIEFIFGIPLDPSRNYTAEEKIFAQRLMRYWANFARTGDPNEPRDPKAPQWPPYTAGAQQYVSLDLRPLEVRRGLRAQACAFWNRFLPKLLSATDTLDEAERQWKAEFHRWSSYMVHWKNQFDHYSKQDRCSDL
- protocol-notes: biochemical
pIC50 values by entry
A value of pIC50 is the negative decimal logarithm of a concentration given in moles per litre.

Use these answered entries as a reference point.
# molecule, pIC50
measured = [
    ("COc1ccc(-c2cc3c(c(=O)o2)C[C@]2(O)[C@@]4(C)CCC(=O)C(C)(C)[C@]4(O)CC[C@@]2(C)O3)cc1 [Compound 8, terreulactone C]", 7.30),
    ("COc1cc(-c2cc3c(c(=O)o2)C[C@]2(O)[C@@]4(C)C(=O)C=CC(C)(C)[C@]4(O)CC[C@@]2(C)O3)cc(OC)c1OC [Compound 4, territrem B]", 8.38),
    ("COc1ccc(-c2cc3c(c(=O)o2)C[C@]2(O)[C@@]4(C)C(=O)C=CC(C)(C)[C@]4(O)CC[C@@]2(C)O3)cc1OC [Compound 6, arisugacin A]", 7.92),
    ("COc1cc(-c2cc3c(c(=O)o2)C[C@]2(O)[C@@]4(C)C(=O)C=CC(C)(C)[C@]4(O)CC[C@@]2(C)O3)cc(OC)c1O [Compound 5, territrem C]", 7.70),
]

## Input Can you share its pIC50? I mean this molecule: COc1cc(-c2cc3c(c(=O)o2)C[C@]2(O)[C@@]4(C)C(=O)C=CC(C)(C)[C@]4(O)CC[C@@]2(C)O3)cc(O)c1OC [Compound 1, territrem D]
## Output 8.38

---

- Tested on: barnacle Balanus amphitrite larvae
- protocol-notes: Barnacle Balanus amphitrite larval settlement bioassay (antifouling)
- condition-info: antifouling activity at nontoxic concentrations, B. amphitrite larvae
LC50/EC50 values values by entry

# compound, LC50/EC50 values
records = [
    ("COc1cc(-c2cc3c(c(=O)o2)C[C@]2(O)[C@@]4(C)C(=O)C=CC(C)(C)[C@]4(O)CC[C@@]2(C)O3)cc(O)c1OC", "> 100 µg/mL"),
]

## Input Which LC50/EC50 values is reported for this compound? COC(=O)[C@]1(Cc2ccc3c(c2)C[C@H](O)C(C)(C)O3)OC(=O)C(O)=C1c1ccc(O)cc1
## Output > 100 µg/mL

## Input Which LC50/EC50 values reading was recorded for the compound COC(=O)[C@]1(Cc2ccc3c(c2)CCC(C)(C)O3)OC(=O)C(O)=C1c1ccc(O)cc1 [Compound 12, aspernolide A] ?
## Output > 100 µg/mL

## Input Please look up its LC50/EC50 values: COC(=O)[C@]1(Cc2ccc(O)c(CCC(C)(C)O)c2)OC(=O)C(O)=C1c1ccc(O)cc1 [Compound 15, aspernolide B]
## Output > 100 µg/mL

---

- Test system: Vero cell line
- protocol-notes: Cytotoxic activity against Vero cell line by MTT method
- Format: cell-based
- condition-info: non-cytotoxic concentration (TC0)
recorded-metric: Cytotoxicity Against Vero TC0

# compound, Cytotoxicity Against Vero TC0
records = [
    ("COc1ccc(-c2cc3c(c(=O)o2)C[C@]2(O)[C@@]4(C)CCC(=O)C(C)(C)[C@]4(O)CC[C@@]2(C)O3)cc1", ">25 µg/mL"),
    ("COc1cc(-c2cc3c(c(=O)o2)C[C@]2(O)[C@@]4(C)C(=O)C=CC(C)(C)[C@]4(O)CC[C@@]2(C)O3)cc(OC)c1O", ">25 µg/mL"),
]

## Input Requested read-out: Cytotoxicity Against Vero TC0. Entry: Nc1nc2c(ncn2COCCO)c(=O)[nH]1 [Acyclovir, reference compound]
## Output >1000 µg/mL

Origin of measurements: paper PMC4278221
